Just for reference, ChEMBL document CHEMBL1201862 is where these values come from.

# reported GI50; entries follow
System: COLO 205
Assay: NCI tumour cell line growth inhibition, 48 h
Active and inactive are the calls of the source. No stated cut-off is given here; in the data, active = GI50 up to about 1.1 µM and inactive = higher.

>  <Compound>
COc1ccc(S(=O)(=O)N/N=C/c2cc(I)cc([N+](=O)[O-])c2O)cc1OC

>  <GI50>
50.9 µM (inactive)

$$$$
>  <Compound>
CCOC(O)(NC(=O)C(C(F)(F)F)C(F)(F)F)C(F)(F)F (stereo not given)

>  <GI50>
> 100 µM (inactive)

$$$$
>  <Compound>
CCCCCCCCCCCC(=O)OCC1OC(n2cc(F)c(=O)[nH]c2=O)C(N)C(O)C1O (stereo not given)

>  <GI50>
60.3 µM (inactive)

$$$$
>  <Compound>
CO/C(=N\N=C(/c1ccccc1)C(F)(F)F)c1ccncc1

>  <GI50>
28.7 µM (inactive)

$$$$
>  <Compound>
CC(=O)c1ccc2c(c1)c1c(C)c3c[n+](C)ccc3c(C)c1n2C

>  <GI50>
9.57 µM (inactive)

$$$$

###

# reported GI50; entries follow
Tested on: HCC 2998
Experiment: NCI tumour cell line growth inhibition, 48 h
The source made the active and inactive calls. Cut-off read from the data, not from the text of the source: active = GI50 up to about 1.1 µM and inactive = higher.

>  <Compound>
CC(=O)C1(c2ccccc2)CCCN(C)CC1 (centres undefined)

>  <Target Of Assay>
HCC 2998

>  <GI50>
> 100 µM (inactive)

$$$$
>  <Compound>
COc1cc2c(cc1OC)CC1c3cc(OC)c(OC)cc3CCN1CC2 (centres undefined)

>  <Target Of Assay>
HCC 2998

>  <GI50>
> 100 µM (inactive)

$$$$
>  <Compound>
Cc1ccc2nc(-c3ccc(C(C)(C)C)cc3)oc(=O)c2c1

>  <Target Of Assay>
HCC 2998

>  <GI50>
14.6 µM (inactive)

$$$$
>  <Compound>
CC(C)(C)OC(=O)NCC(=O)N(CCc1ccc(Cl)c(Cl)c1)CCN1CCCC1

>  <Target Of Assay>
HCC 2998

>  <GI50>
5.14 µM (inactive)

$$$$
>  <Compound>
CCOC(=O)c1cc(C(=O)c2ccccc2)n2nc(-c3ccc(Cl)cc3)ccc12

>  <Target Of Assay>
HCC 2998

>  <GI50>
23.2 µM (inactive)

$$$$
>  <Compound>
NC(=O)c1csc(CCCCCCc2nc(C(N)=O)cs2)n1

>  <Target Of Assay>
HCC 2998

>  <GI50>
> 100 µM (inactive)

$$$$
>  <Compound>
COc1cc(C(C)c2cc3c(cc2OCCCCOc2cc4c(cc2C(C)c2cc(OC)c(OC)c(OC)c2)OCO4)OCO3)cc(OC)c1OC (centres undefined)

>  <Target Of Assay>
HCC 2998

>  <GI50>
29.5 µM (inactive)

$$$$
>  <Compound>
O=C1C=C(Nc2ccccc2C(=O)CC(=O)C(=O)Nc2ccc(Cl)c(Cl)c2)c2ccccc2C1=O

>  <Target Of Assay>
HCC 2998

>  <GI50>
> 100 µM (inactive)

$$$$
>  <Compound>
COc1cc([C@@H]2c3cc4c(cc3[C@@H](NC(=O)c3cccc(N)c3)C3COC(=O)[C@@H]32)OCO4)cc(OC)c1O (some centres undefined)

>  <Target Of Assay>
HCC 2998

>  <GI50>
2.21 µM (inactive)

$$$$

###

System: OVCAR-5
Assay: NCI tumour cell line growth inhibition, 48 h
Active and inactive are the calls of the source. Cut-off read from the data, not from the text of the source: active = GI50 up to about 1.1 µM and inactive = higher.
# reported GI50; entries follow
Quantity Measured: GI50

>  <Compound>
Cn1cc(NC(=O)Nc2cc(C(=O)Nc3cc(C(=O)Nc4ccc5cc(S(=O)(=O)O)cc(S(=O)(=O)O)c5c4)n(C)c3)n(C)c2)cc1C(=O)Nc1cc(C(=O)Nc2ccc3cc(S(=O)(=O)O)cc(S(=O)(=O)O)c3c2)n(C)c1

>  <Target Of Assay>
OVCAR-5

>  <Experimental Value>
> 100 µM (inactive)

$$$$
>  <Compound>
Cc1sc2nc(-c3cccc([N+](=O)[O-])c3)c(/C=N/N=C(N)N)n2c1C

>  <Target Of Assay>
OVCAR-5

>  <Experimental Value>
1.65 µM (inactive)

$$$$
>  <Compound>
O=C1NN=C2C=C(c3ccc(Cl)cc3)CC(c3cccc(Cl)c3)C12 (centres undefined)

>  <Target Of Assay>
OVCAR-5

>  <Experimental Value>
26.5 µM (inactive)

$$$$
>  <Compound>
OCCCN(CCc1ccc(Cl)c(Cl)c1)CCN1CCCC1

>  <Target Of Assay>
OVCAR-5

>  <Experimental Value>
31.4 µM (inactive)

$$$$
>  <Compound>
NNC1=Nc2ccc(Cl)cc2C(=S)N2CSCC12 (centres undefined)

>  <Target Of Assay>
OVCAR-5

>  <Experimental Value>
> 100 µM (inactive)

$$$$
>  <Compound>
COC(=O)CCc1cc(OC)c(O)c(C(Cc2ccc(OC)c(OC)c2)C(=O)OC)c1 (centres undefined)

>  <Target Of Assay>
OVCAR-5

>  <Experimental Value>
> 100 µM (inactive)

$$$$
>  <Compound>
COC1=CC23C=CC1[C@@H](c1ccccc1)C2=C(C)C(=O)N3C(=O)NC1CCCCC1 (some centres undefined)

>  <Target Of Assay>
OVCAR-5

>  <Experimental Value>
23.7 µM (inactive)

$$$$
>  <Compound>
OCC1OC(n2nc(-c3ccccc3)nc2-c2cnccn2)C(O)C(O)C1O (centres undefined)

>  <Target Of Assay>
OVCAR-5

>  <Experimental Value>
> 100 µM (inactive)

$$$$
>  <Compound>
Cc1ccc(Cc2nn(C)c(=O)n2-n2cccc2)cc1

>  <Target Of Assay>
OVCAR-5

>  <Experimental Value>
> 100 µM (inactive)

$$$$
